Reported activity change vs negative control values follow for various compounds
Target: Potassium voltage-gated channel subfamily KQT member 2 (Rattus norvegicus) (UniProt O88943)
Sequence (O88943 whole entry, looked up): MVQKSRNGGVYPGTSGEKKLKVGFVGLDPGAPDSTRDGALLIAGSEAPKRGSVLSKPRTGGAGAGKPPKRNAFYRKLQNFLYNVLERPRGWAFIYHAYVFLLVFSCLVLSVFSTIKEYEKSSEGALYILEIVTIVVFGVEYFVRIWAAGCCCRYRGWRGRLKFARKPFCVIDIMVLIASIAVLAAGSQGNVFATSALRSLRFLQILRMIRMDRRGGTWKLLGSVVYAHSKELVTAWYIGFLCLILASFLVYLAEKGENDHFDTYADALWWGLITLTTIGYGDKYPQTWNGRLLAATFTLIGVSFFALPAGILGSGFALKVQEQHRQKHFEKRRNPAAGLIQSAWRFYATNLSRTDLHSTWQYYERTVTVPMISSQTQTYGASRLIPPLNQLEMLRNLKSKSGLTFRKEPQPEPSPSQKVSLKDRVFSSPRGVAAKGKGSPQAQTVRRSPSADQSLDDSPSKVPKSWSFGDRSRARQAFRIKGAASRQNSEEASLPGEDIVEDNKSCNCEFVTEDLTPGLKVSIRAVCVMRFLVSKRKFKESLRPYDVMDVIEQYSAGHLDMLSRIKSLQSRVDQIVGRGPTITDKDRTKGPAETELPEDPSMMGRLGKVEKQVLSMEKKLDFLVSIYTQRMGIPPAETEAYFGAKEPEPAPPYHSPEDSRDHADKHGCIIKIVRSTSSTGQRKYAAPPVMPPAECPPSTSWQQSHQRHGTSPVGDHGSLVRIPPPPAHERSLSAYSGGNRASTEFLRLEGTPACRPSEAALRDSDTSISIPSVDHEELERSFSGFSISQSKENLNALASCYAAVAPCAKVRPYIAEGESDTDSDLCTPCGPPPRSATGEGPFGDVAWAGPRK
Test: KCNQ2 blockade in CHO cells – cell-based, FluxOR thallium flux, counter-screen for hERG block protector project, confirmation (AID 1946)
Conditions: FluxOR thallium flux fluorescence, at 10 µM, active compounds read low, zero marks the 3-SD hit cutoff
The campaign covered roughly 2,400 compounds. About 180 (7.5%) were called active. This is one part of a sample in which actives are shown more often than they occur.
Give the quantity in %, number only.

Recorded activity change vs negative control, per entry:
                                   compound                        property_name  unit_annotation  test_result
0  CCOC(=O)c1cnn(-c2nc(SC)nc3sc4c(c23)CCCC4)c1N  activity change vs negative control                %          5.9
1           O=C1NC(=S)S/C1=C\c1ccc2ccccc2c1  activity change vs negative control                %         75.1
2  C#CCN1C(=O)S/C(=C\c2ccc(-c3ccc(C(=O)O)cc3C)o2)C1=O  activity change vs negative control                %          7.6
3    Cc1ccc(OC(=O)c2sc3ncn(C)c(=O)c3c2C)cc1  activity change vs negative control                %         -1.4
4  O=c1c2cc(Br)ccc2nc(-c2ccc([N+](=O)[O-])cc2)n1O  activity change vs negative control                %         66.7

What value of activity change vs negative control has been recorded for this entry: Cc1ccccc1NC(=O)CN1C(=O)S/C(=C\c2ccc(-c3cccc(C(=O)O)c3C)o2)C1=O
-1

Same read-out for CC1CCCCC1n1c(=S)[nH]c2ccccc2c1=O (configuration not stated) ?
28

Check O=C1c2ccccc2C(=O)N1c1cccnc1 too.
6.9

Try Cc1ccc(NC(=O)CN2C(=O)S/C(=C\c3ccc(-c4cccc(C(=O)O)c4C)o3)C2=O)cc1 next.
-4

Consider next the compound Cc1ccc(C(=O)NNc2cc(N3CCCC3)nc(N3CCCC3)n2)cc1 in the same way.
39.7

What about this compound? O=[N+]([O-])c1ccc(-c2ccc(/C=N/n3cnnc3)o2)c(Br)c1
3.2

###

Molecular target: Potassium voltage-gated channel subfamily KQT member 2 (Rattus norvegicus) (UniProt O88943)
Assay: KCNQ2 blockade in CHO cells – cell-based, FluxOR thallium flux, counter-screen for hERG block protector project, confirmation (AID 1946)
Details: FluxOR thallium flux fluorescence, at 10 µM, zero marks the 3-SD hit cutoff
The whole screen tested about 2,400 compounds, of which about 180 (7.5%) were called active.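 Rule for the calls: active = readout below zero, meaning a drop past 3 SD under the dofetilide-free negative control mean; inactive = the rest.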 Many of the other results were omitted from the sample, so actives are more common in it than they were.
The reply should name one outcome from Yes = active, No = inactive

Reference set (4 entries):
In [3]: df
Out[3]:
                                   molecule  label_class
0      NC(=O)CSc1nc2ccccc2c(=O)n1CCc1ccccc1           No
1       CCOc1cccc(C(=O)Nc2ccc3[nH]ncc3c2)c1           No
2  Cc1cc(N2C(=O)C(O)=C(C(=O)c3cccs3)C2c2ccccc2)no1 (stereo not given)          Yes
3  S=c1[nH]nc(-c2ccco2)n1/N=C/C(Cl)=C/c1ccccc1           No

Let us examine a further case.
Short answer needed: outcome of this test for O=C(Nc1nc(-c2ccccc2)c(-c2ccccc2)o1)c1ccc(F)cc1 ?
No
